target: T1, AFP158/HLA-A*02:01 complex (human); experiment: SPR, crude scFv captured, pMHC analyte;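 also: complex injected at several concentrations over the chip, association phase then running buffer for dissociation, KD derived from on- and off-rates computed from both curves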
T1 construct: flowed as analyte in SPR
Attribute Measured: kon (M⁻¹ s⁻¹)
Return type: number; implicit unit M⁻¹ s⁻¹.

Data request: Entry AS170036 VL1VH1-57K98F108D (scFv, also called 68-AS170036 VL1VH1-57K98F108D) scFv: QSALTQPRSVSGSPGQSVTISCAGTSSDVGSENYVSWYQQHPGKAPKLMIYQVNKRASGVPDRFSGSKSGNTASLTISGLQAEDEADYYCASYRSSDFNIVFGGGTKLTVLGGGGSGGGGSGGGGSEVQLVESGGGLVQPGGSLRLSCAASGFTFSSYAMSWVRQAPGKGLEWVSTINSGTGKPYYADSVKGRFTISRDNSKNTLYLQMNSLRAEDTAVYYCAKNFFDGSWFLDPPAMDYWGQGTLVTVSSHHHHHH : reported kon = ?
Data returned: 250000

Data request: Entry AS170036 VL1VH1-57M98I108S (scFv, also called 81-AS170036 VL1VH1-57M98I108S) scFv: QSALTQPRSVSGSPGQSVTISCAGTSSDVGSENYVSWYQQHPGKAPKLMIYQVNKRASGVPDRFSGSKSGNTASLTISGLQAEDEADYYCASYRSSDINIVFGGGTKLTVLGGGGSGGGGSGGGGSEVQLVESGGGLVQPGGSLRLSCAASGFTFSSYAMSWVRQAPGKGLEWVSTINSGTGMPYYADSVKGRFTISRDNSKNTLYLQMNSLRAEDTAVYYCAKNFFDGSWFLSPPAMDYWGQGTLVTVSSHHHHHH : reported kon = ?
Data returned: 170000

Data request: Entry AS170036 VL1VH1-56Y98I108D (scFv, also called 44-AS170036 VL1VH1-56Y98I108D) scFv: QSALTQPRSVSGSPGQSVTISCAGTSSDVGSENYVSWYQQHPGKAPKLMIYQVNKRASGVPDRFSGSKSGNTASLTISGLQAEDEADYYCASYRSSDINIVFGGGTKLTVLGGGGSGGGGSGGGGSEVQLVESGGGLVQPGGSLRLSCAASGFTFSSYAMSWVRQAPGKGLEWVSTINSGTYSPYYADSVKGRFTISRDNSKNTLYLQMNSLRAEDTAVYYCAKNFFDGSWFLDPPAMDYWGQGTLVTVSSHHHHHH : reported kon = ?
Data returned: 260000
